Entry source: PubChem BioAssay AID1159580

Assay: chemical genetic growth profiling, strain panel (AID 1159580);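 further: tested at 20 µM; growth read once vehicle control cultures reached saturation at 30 °C; 1 = growth at the plate median or of vehicle wells; lower values mean less growth of the strain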
Details: S. cerevisiae deletion strains, growth OD, locus YLR058C, strain SHM2 (second series), stronger effect = lower value
Hit rate of the full screen: of about 5,500 compounds, about 2,000 (36%) were called active. Roughly 18% stayed inconclusive and do not appear here. The list shows a part of the results.
Quantity Name: normalized growth
Hey, just send me the number, nothing else.

[
  {
    "Compound": "COc1ccc(CCNC(=S)Nc2cccc(C(F)(F)F)c2)cc1OC",
    "normalized growth": 1.01
  },
  {
    "Compound": "OC(CNCCc1cccs1)COc1ccccc1 (stereo unspecified)",
    "normalized growth": 0.991
  },
  {
    "Compound": "NC(=S)N/N=C\\c1cccs1",
    "normalized growth": 1
  },
  {
    "Compound": "CC(C)(C)NS(=O)(=O)NC(C)(C)C",
    "normalized growth": 1
  },
  {
    "Compound": "O=[N+]([O-])/C=C/c1ccsc1",
    "normalized growth": 0.0499
  }
]

Exercise: // normalized growth lookup, key: `CC(=O)N/C(=C/c1ccc2c(c1)OCO2)C(=O)O`
Key: 1.01

Exercise: What do we get for `O=C(Nc1ccc(C(F)(F)F)cc1)Nc1ccccc1C(=O)O` ?
Key: 0.979

Exercise: What do we get for `CSc1ccc(/C=C/[N+](=O)[O-])cc1` ?
Key: 0.0502

====

The following compounds are listed with their measured normalized growth values.
Test: chemical genetic growth profiling, strain panel (AID 1159580)
Settings: S. cerevisiae deletion strains, growth OD, locus YBL061C, strain skt5, stronger effect = lower value
Screen size: about 5,500 compounds; about 2,000 (36%) were called active. Roughly 18% stayed inconclusive and do not appear here. Some of the results follow.
Hey, just send me the number, nothing else.

See these solved cases before continuing.
[
  {
    "Compound": "Cc1ccc2c(Cl)cc(Cl)c(O)c2n1",
    "normalized growth": 1.02
  },
  {
    "Compound": "C=C(NC(=O)C(=C)NC(=O)c1csc(C2=NC3c4csc(n4)C4NC(=O)c5csc(n5)C(C(C)(O)C(C)O)NC(=O)C5CSC(=N5)C(=CC)NC(=O)C(C(C)O)NC(=O)c5csc(n5)C3(CC2)NC(=O)C(C)NC(=O)C(=C)NC(=O)C(C)NC(=O)C(C(C)CC)NC2C=Cc3c(C(C)O)cc(nc3C2O)C(=O)OC4C)n1)C(N)=O (stereo unspecified)",
    "normalized growth": 1
  },
  {
    "Compound": "CC(=O)O[C@H]1C[C@@H](OC(C)=O)C(C)(C)C2C[C@@H](OC(C)=O)[C@@]3(C)C4=CC(=O)O[C@@H](c5ccoc5)[C@]4(C)CCC3[C@]21C (stereo partly specified)",
    "normalized growth": 0.997
  },
  {
    "Compound": "CC(C)(C)NCC(O)c1ccccc1Cl (stereo unspecified)",
    "normalized growth": 0.991
  },
  {
    "Compound": "CCN(CC)CCNC(=O)c1cc(S(C)(=O)=O)ccc1OC",
    "normalized growth": 0.967
  },
  {
    "Compound": "Nc1ncnc2c1ncn2C1C[C@H](O)[C@@H](CO)O1 (stereo partly specified)",
    "normalized growth": 1.01
  },
  {
    "Compound": "O=C(O)c1ccccc1Nc1ccccc1",
    "normalized growth": 0.946
  },
  {
    "Compound": "OC[C@@H]1CCCN2CCCC[C@H]12",
    "normalized growth": 1.03
  }
]

Exercise: // normalized growth lookup, key: `CN/C(=C\[N+](=O)[O-])NCCSCc1ccc(CN(C)C)o1`
Key: 0.974

Exercise: What do we get for O=C(O)CCCCC1CCSS1 (stereo unspecified) ?
Key: 0.979

Exercise: What do we get for `Cc1c(Nc2ncccc2C(=O)O)cccc1C(F)(F)F` ?
Key: 0.981

Exercise: What do we get for `CC(=O)NCCCCCC(=O)O` ?
Key: 0.99

====

Test: chemical genetic growth profiling, strain panel (AID 1159580);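 further: tested at 20 µM; growth read once vehicle control cultures reached saturation at 30 °C; 1 = growth at the plate median or of vehicle wells; lower values mean less growth of the strain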
Conditions: S. cerevisiae deletion strains, growth OD, locus YPL241C, strain CIN2
About 2,000 (36%) of roughly 5,500 compounds were called active. Not shown: some 18% with an inconclusive outcome. Cut-off read from the data, not from the text of the source: active = normalized growth mostly below about 0.91 (no sharp cut-off); inconclusive = no clear call, values can overlap the other calls; inactive = mostly above about 0.92. Some of the results follow.
Hi there, use one of these labels in your reply, thanks! active, inactive

For orientation, consider the following solved cases.
[
  {
    "Molecule": "O=C(NNC(=S)Nc1ccc(F)cc1)c1ccccc1Cl",
    "Label Class": "inactive"
  },
  {
    "Molecule": "Nc1ncnc2c1ncn2C1O[C@H](COP(=O)(O)O)[C@@H](O)[C@H]1O (stereo partly specified)",
    "Label Class": "inactive"
  },
  {
    "Molecule": "O=C(N/N=C\\C=C\\c1ccccc1)c1ccccc1-n1cccc1",
    "Label Class": "inactive"
  },
  {
    "Molecule": "NC(=NS(=O)(=O)c1cc(C(F)(F)F)cc(C(F)(F)F)c1)c1cccs1",
    "Label Class": "inactive"
  },
  {
    "Molecule": "Nc1ncn([C@@H]2O[C@H](CO)[C@@H](O)[C@H]2O)c(=O)n1",
    "Label Class": "inactive"
  }
]

Exercise: Test call, this molecule: `NC(=S)N/N=C\c1cc(F)cc(F)c1`
Key: inactive

Exercise: What do we get for `Nc1ccccc1SCC(=O)Nc1c(F)cccc1F` ?
Key: inactive

Exercise: What do we get for `CN(C(=O)CCCOc1ccc2[nH]c(=O)ccc2c1)C1CCCCC1` ?
Key: inactive

Exercise: What do we get for `OC[C@@H](O)[C@@H](O[C@@H]1O[C@H](CO)[C@@H](O)[C@H](O)[C@H]1O)[C@H](O)[C@@H](O)CO` ?
Key: inactive

Exercise: What do we get for `CCOC(=O)N/N=C\c1cccs1` ?
Key: inactive

Exercise: What do we get for C=C(C)C1CC=C(C(=O)O)CC1 (stereo unspecified) ?
Key: inactive

Exercise: What do we get for `Fc1cccc(Cl)c1CSc1nncn1-c1ccc(OCc2ccccc2)cc1` ?
Key: inactive

Exercise: What do we get for `C=C(C)[C@H]1CC=C(C(=O)O)CC1` ?
Key: inactive

Exercise: What do we get for C=CC(C)(O)CC/C=C(\C)CCC=C(C)C (stereo unspecified) ?
Key: inactive

Exercise: What do we get for `CC(C)(C)NS(=O)(=O)NC(C)(C)C` ?
Key: active

====

Assay: chemical genetic growth profiling, strain panel (AID 1159580);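 further: tested at 20 µM; growth read once vehicle control cultures reached saturation at 30 °C; 1 = growth at the plate median or of vehicle wells; lower values mean less growth of the strain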
Details: S. cerevisiae deletion strains, growth OD, locus YPR163C, strain tif3, stronger effect = lower value
Among all 5,500 compounds or so, about 2,000 (36%) were called active. Not shown: some 18% with an inconclusive outcome. The list shows a part of the results.
Quantity Name: normalized growth
Hey, just send me the number, nothing else.

See these solved cases before continuing.
[
  {
    "Compound": "N[C@@H](Cc1ccc(O)c(O)c1)C(=O)O",
    "normalized growth": 1.01
  },
  {
    "Compound": "C=CCC1(C(C)CCC)C(=O)N=C(S)NC1=O (configuration not stated)",
    "normalized growth": 0.985
  },
  {
    "Compound": "CCCCC1(COC(=O)CCC(=O)O)C(=O)N(c2ccccc2)N(c2ccccc2)C1=O",
    "normalized growth": 1.02
  },
  {
    "Compound": "CN/C(=C\\[N+](=O)[O-])NCCSCc1ccc(CN(C)C)o1",
    "normalized growth": 0.993
  },
  {
    "Compound": "Cc1ccsc1/C=C/C1=NCCCN1C",
    "normalized growth": 0.983
  }
]

Exercise: // normalized growth lookup, key: C=CC(C1=CC(=O)C=CC1=O)c1ccccc1 (configuration not stated)
Key: 0.849

Exercise: What do we get for CSCCC(NC=O)C(=O)NC(C)C(=O)O (configuration not stated) ?
Key: 0.988

====

Assay: chemical genetic growth profiling, strain panel (AID 1159580);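 further: tested at 20 µM; growth read once vehicle control cultures reached saturation at 30 °C; 1 = growth at the plate median or of vehicle wells; lower values mean less growth of the strain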
Details: S. cerevisiae deletion strains, growth OD, locus YAL030W, strain snc1, stronger effect = lower value
The whole screen tested about 5,500 compounds, of which about 2,000 (36%) were called active. Not shown: some 18% with an inconclusive outcome. The list shows a part of the results.
Quantity Name: normalized growth
Hey, just send me the number, nothing else.

See these solved cases before continuing.
[
  {
    "Molecule": "O=C(OC1Cc2c(O)cc(O)cc2OC1c1cc(O)c(O)c(O)c1-c1c(C2Oc3cc(O)cc(O)c3CC2OC(=O)c2cc(O)c(O)c(O)c2)cc(O)c(O)c1O)c1cc(O)c(O)c(O)c1 (stereo unspecified)",
    "normalized growth": 0.998
  },
  {
    "Molecule": "CC(=O)NCCCS(=O)(=O)O",
    "normalized growth": 1.01
  },
  {
    "Molecule": "NC(=NCCC[C@H](N)C(=O)O)NC(CCC(=O)O)C(=O)O (stereo partly specified)",
    "normalized growth": 1
  },
  {
    "Molecule": "Nc1ccc(S(=O)(=O)Nc2ccccn2)cc1",
    "normalized growth": 1.01
  },
  {
    "Molecule": "Nc1ccc(C(=O)NCC(=O)O)cc1",
    "normalized growth": 0.998
  }
]

Next item in the queue.
Exercise: // normalized growth lookup, key: O=c1[nH]c(=O)n(C2C[C@@H](O)[C@@H](CO)O2)cc1F (stereo partly specified)
Key: 0.992
